Quick reference for IC50 among some molecules
ASSAYED_SYSTEM: UniProt:P29476
ASSAY_PROCEDURE: nNOS (Rat) enzyme assay
Assay type: biochemical
CONDITION_DESCRIPTION: rat nNOS; values in parentheses; read-out: nNOS IC50 (rodent data in parentheses)
Counter-ions that a name gives are not always drawn.
Field: numeric (nM). Do not append units.

Past entries and their recorded results:
Give IC50 for CN1CCC(N2CCCc3cc(NC(=N)c4cccs4)ccc32)C1 (single isomer, unassigned) [Example 56] 87

Entry CC(C)NCCN1CCCc2cc(NC(=N)c3cccs3)ccc21 [Example 61] needs its IC50 filled in; supply it. 1100

# return recorded IC50 for entry Cl.Cl.N=C(Nc1ccc2c(c1)CCN2C1CCNCC1)c1cccs1 [Example 54, dihydrochloride] 2600

State its IC50 for this molecule: CN(C)CCN1CCCc2cc(NC(=N)c3cccs3)ccc21 [Example 11] 460

Annotate the molecule CN1CCC(C2C(=O)Nc3ccc(NC(=N)c4cccs4)cc32)CC1 (stereo not drawn) [Example 31] with its measured IC50. 990

Quickly give me recorded IC50 for CNCCN1CCCc2ccc(NC(=N)c3cccs3)cc21 [Example 44] 480

Return the recorded IC50 value; entry: N=C(Nc1ccc2c(c1)CCCN2C1CCNCC1)c1cccs1 [Example 47] 3800

Complete the entry with IC50 for CNCCN1CCCc2cc(NC(=N)c3cccs3)ccc21.Cl.Cl [Example 30, dihydrochloride] 192

New cases:
Answer with the recorded IC50 of CN(C)CCN1CCCCc2cc(NC(=N)c3cccs3)ccc21.Cl.Cl [Example 28, dihydrochloride] only. 120

Please report IC50 for the following molecule: CCNCCN1CCCc2cc(NC(=N)c3cccs3)ccc21 [Example 60] 440

Name the recorded IC50 of the molecule listed here: CN1CCC(N2CCCc3cc(NC(=N)c4cccs4)ccc32)C1 (single isomer, unassigned) [Example 57] 504

Supply measured IC50 of N=C(Nc1ccc2c(c1)CCCN2C1CCNC1)c1cccs1 (single isomer, unassigned; (-)) [Example 65, dihydrochloride] in your reply. 280

###

The entries below come with measured pIC50 values attached.
ASSAYED_SYSTEM: Nitric oxide synthase (neuronal, human recombinant) nNOS (Homo sapiens)
Sequence (P29475 whole entry): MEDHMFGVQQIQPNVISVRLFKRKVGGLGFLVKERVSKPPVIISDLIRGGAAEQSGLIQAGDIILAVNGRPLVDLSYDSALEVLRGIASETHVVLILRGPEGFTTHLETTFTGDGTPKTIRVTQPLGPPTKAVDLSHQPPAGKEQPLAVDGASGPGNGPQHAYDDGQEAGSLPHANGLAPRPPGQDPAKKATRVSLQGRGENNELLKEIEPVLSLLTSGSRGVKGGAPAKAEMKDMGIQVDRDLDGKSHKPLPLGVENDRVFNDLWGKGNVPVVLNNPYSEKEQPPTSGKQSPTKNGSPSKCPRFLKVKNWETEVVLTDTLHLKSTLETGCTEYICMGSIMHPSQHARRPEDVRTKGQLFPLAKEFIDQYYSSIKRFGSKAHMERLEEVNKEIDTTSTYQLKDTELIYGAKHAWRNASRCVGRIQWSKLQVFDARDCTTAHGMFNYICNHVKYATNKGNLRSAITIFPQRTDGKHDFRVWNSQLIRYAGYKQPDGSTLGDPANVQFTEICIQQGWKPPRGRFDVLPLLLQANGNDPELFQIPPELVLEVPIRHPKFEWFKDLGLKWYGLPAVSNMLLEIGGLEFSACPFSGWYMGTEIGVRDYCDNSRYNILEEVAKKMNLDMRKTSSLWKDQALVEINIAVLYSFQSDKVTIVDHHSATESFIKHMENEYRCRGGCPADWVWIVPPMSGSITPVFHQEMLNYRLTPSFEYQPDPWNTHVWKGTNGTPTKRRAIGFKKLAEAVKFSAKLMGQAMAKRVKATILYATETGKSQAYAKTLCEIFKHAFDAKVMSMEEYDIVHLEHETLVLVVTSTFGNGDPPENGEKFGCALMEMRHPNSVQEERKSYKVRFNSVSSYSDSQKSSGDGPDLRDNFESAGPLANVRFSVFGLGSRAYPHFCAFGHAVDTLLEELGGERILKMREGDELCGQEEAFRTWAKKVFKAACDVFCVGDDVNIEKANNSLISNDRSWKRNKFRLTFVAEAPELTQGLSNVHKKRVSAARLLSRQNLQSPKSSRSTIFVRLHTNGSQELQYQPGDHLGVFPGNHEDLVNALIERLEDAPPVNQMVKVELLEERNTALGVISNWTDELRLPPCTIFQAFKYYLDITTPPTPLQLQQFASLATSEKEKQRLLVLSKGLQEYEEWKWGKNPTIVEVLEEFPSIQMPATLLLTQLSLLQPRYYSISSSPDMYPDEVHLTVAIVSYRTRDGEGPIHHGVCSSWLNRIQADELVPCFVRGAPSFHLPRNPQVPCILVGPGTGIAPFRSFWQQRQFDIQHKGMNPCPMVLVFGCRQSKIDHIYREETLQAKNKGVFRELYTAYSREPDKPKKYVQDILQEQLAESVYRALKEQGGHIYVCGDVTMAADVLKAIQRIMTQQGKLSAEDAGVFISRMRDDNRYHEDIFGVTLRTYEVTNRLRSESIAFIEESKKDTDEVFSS
ASSAY_PROCEDURE: Human nNOS enzyme assay ([3H]L-arginine to [3H]L-citrulline)
Assay type: biochemical
CONDITION_DESCRIPTION: human recombinant nNOS; values without parentheses; read-out: hnNOS IC50
Scale note: pIC50 = -log10(concentration in M).

Output measured pIC50 for this item: CN1CCC(N2CCc3cc(NC(=N)c4cccs4)ccc32)C1 (centres unmarked) 6.37

Fill in pIC50 for record CCNCCN1CCCc2cc(NC(=N)c3cccs3)ccc21 6.41

Now let's try a different one.
// Input: CC(CN1C(=O)CCc2cc(NC(=N)c3cccs3)ccc21)N1CCCC1 (centres unmarked) . Output its pIC50 only. 5.24

###

ASSAYED_SYSTEM: Nitric oxide synthase (endothelial, human recombinant) eNOS (Homo sapiens, UniProt P29474)
ASSAY_PROCEDURE: Human eNOS enzyme assay ([3H]L-arginine to [3H]L-citrulline)
Format: biochemical
CONDITION_DESCRIPTION: human recombinant eNOS; values without parentheses; read-out: heNOS IC50
Structures can show the parent of a compound that is named as a salt.
PROPERTY: pIC50
Scale: pIC50 equals -log10([C]), with [C] in mol/L.

Some molecules with recorded pIC50:
Supply measured pIC50 of CN1CCCC1CCN1CCCc2cc(NC(=N)c3cccs3)ccc21 (single isomer, unassigned) [Example 23] in your reply. 4.39

Consider the molecule N=C(Nc1ccc2c(c1)CCC(=O)N2CCCN1CCOCC1)c1cccs1 and give its recorded pIC50. 3.98

Provide measured pIC50 value, entry: CN(C)CCN1CCc2cc(NC(=N)c3cccs3)ccc21 4.89

Give the measured pIC50 for CN1CCCC1CCN1CCCc2cc(NC(=N)c3cccs3)ccc21 (stereo not shown) [Example 14] 4.76

Give the value of pIC50 reported for the following: CNC1CCC(N2CCc3cc(NC(=N)c4cccs4)ccc32)CC1 (stereo not shown) [Example 70] 4.75

Next:
Output pIC50 of CN(C)CCN1C(=O)CCCc2cccc(NC(=N)c3cccs3)c21 3.71

Give reported pIC50 value for N=C(Nc1ccc2c(c1)CCCN2C1CCNC1)c1cccs1 (single isomer, unassigned; (-)) [Example 65, dihydrochloride] 4.65
